Listed next: entries and their corresponding CC50.
assay: in vitro; conditions: human, Caco-2
readout: CC50

compound: COc1cc(O)c(CC=C(C)C)c2c1C(=O)CC(c1ccc(O)cc1)O2 (stereo not shown)
observed: 19.5 µM
--
compound: CC(C)=CCc1c(O)cc2c(c1O)C(=O)C[C@@H](c1ccc(O)cc1)O2
observed: 22.6 µM
--
compound: CC(C)=CCc1c(O)cc(O)c2c1O[C@H](c1ccc(O)cc1)CC2=O
observed: 54.9 µM
--
compound: COc1cc(O)c(CC=C(C)C)c(O)c1C(=O)/C=C/c1ccc(O)cc1
observed: 12.3 µM
